Values compiled from PubChem BioAssay (NCI).

// reported TGI per item
test system: SF-539 CNS; assay: NCI tumour cell line growth inhibition, 48 h

Item under review: "CN(/N=C/c1ccc(C(=O)O)cc1)C1=NCCCCN1" . Reported TGI?
> 100 µM

Which TGI value is on record for "COCCOC(=O)C1=C(O)c2ccccc2S(=O)(=O)N1C" ?
> 100 µM

For the molecule shown here, "Nc1cc([N+](=O)[O-])ccc1C(=O)N1CCC[C@H]1CO" , give the reported TGI.
> 100 µM

Form field: reported TGI of "CCCCCCCCn1ccc2cc(NC(=O)Cn3cc(CN4CCCCCC4)nn3)ccc21"
3.21 µM

I am curious: what TGI value has been reported for "N#Cc1ccc(-c2nc3c(N)ncnc3o2)cc1" ?
> 100 µM

Given CC(=O)OC1OC([C@H]2c3cccc(O)c3C(=O)c3c(O)cc(C)cc32)C(O)C(O)C1O (stereo partly specified) , state its recorded TGI.
7.08 µM

TGI lookup needed for CC(=O)C(C(c1ccccc1)N1CCOCC1)N1CCOCC1 (stereo unspecified) , thanks.
> 100 µM

For the molecule "COC(=O)[C@@H]1C[C@H]2OC(=O)CC[C@]2(C)O[C@H]1[C@H]1O[C@@](C)(O)CCC[C@H]1C" , what TGI is on record?
> 50 µM

For "COc1ccc2nc3cc(Cl)ccc3c(Sc3ccc([N+](=O)[O-])cc3C)c2c1" , what is its reported TGI?
> 100 µM

Form field: reported TGI of "Cc1c(-c2ccccc2)cc(O)c2nc3ccccc3n12"
> 100 µM

Any idea what TGI was measured for "CN(C)CCC(=O)N1C/C(=C\c2ccc(Cl)c(Cl)c2)C(=O)/C(=C/c2ccc(Cl)c(Cl)c2)C1" ?
0.832 µM

If you can, please state the reported TGI value of "Cc1ccc(C(=O)N/N=C(\N=Nc2cccc([N+](=O)[O-])c2)c2ccc(N(CCC#N)CCC#N)cc2C)cc1" .
58.7 µM

// lookup TGI for "O=NNc1ccc2ccccc2n1"
> 100 µM

Form field: reported TGI of Cc1ccc(C2=C(c3ccc(C)cc3)C3(c4ccc(C)cc4)C4C(=O)OC(=O)C4C2(c2ccc(C)cc2)S3=O)cc1 (stereo unspecified)
31.9 µM

Could you share which TGI value was measured for CC1(C)C2CCC1(C)C(N/C(Sc1ccccc1)=C(/C(Cl)=C(Cl)Cl)[N+](=O)[O-])C2 (stereo unspecified) ?
26.2 µM

Data request, read-out TGI, for "O=C(NC(=O)c1c(F)cccc1F)Nc1cccc(Oc2ncc(Cl)cn2)c1"
> 100 µM

I would be grateful if you could share the reported TGI for "Cc1ccc(S(=O)(=O)Nc2cccc3c(=O)[nH]cnc23)cc1" .
> 100 µM

Query: TGI; subject: O=C1/C(=C/C=C/c2ccccc2)CCC1CNc1ccccc1 (stereo unspecified)
> 77.5 µM

Can you look up the measured TGI of "CC1(C)N=C(N)N=C(N)N1c1ccc(CCC(=O)Nc2ccc(S(=O)(=O)F)cc2)c(Cl)c1" for me?
> 38.7 µM

Would you kindly share the measured TGI for Cc1cc(N(CC(C)Br)CC(C)Br)ccc1N=Nc1ccccc1C(=O)O (stereo unspecified) ?
4.39 µM

I am curious: what TGI value has been reported for CC(=O)C1C(c2ccccc2)C2(C)OC(=O)C(C#N)C12C (stereo unspecified) ?
> 100 µM

Requested read-out: TGI. Entry: "C=CC[C@]1(/C=N/O)CN(S(=O)(=O)CC[Si](C)(C)C)C[C@H]2CC=CC[C@H]21"
32.8 µM

May I ask what TGI has been recorded for "O=C(O)CSCCc1ccccc1" ?
> 100 µM
